Biological target: T1, hMC3-R (human, UniProt P41968 1-323)
T1 construct: whole, on cells; Assayed as membranes prepared from transfected HEK 293 cells; also called MC3 receptor; melanocortin-3 receptor
T1 sequence (P41968 whole entry): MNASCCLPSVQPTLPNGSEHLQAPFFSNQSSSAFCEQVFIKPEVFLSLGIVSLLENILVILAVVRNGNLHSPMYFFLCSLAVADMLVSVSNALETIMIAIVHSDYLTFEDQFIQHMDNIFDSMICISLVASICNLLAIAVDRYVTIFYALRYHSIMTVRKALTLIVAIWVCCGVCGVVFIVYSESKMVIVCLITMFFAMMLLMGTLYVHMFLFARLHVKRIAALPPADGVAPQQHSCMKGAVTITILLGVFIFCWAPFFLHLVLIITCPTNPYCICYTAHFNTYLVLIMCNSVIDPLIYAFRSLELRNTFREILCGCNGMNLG
Experiment: titrated competitive binding assay on receptor membranes
READOUT_TYPE: pKi
Answers are plain numbers, as −log10 of the molar value.

-- ask Write down pKi measured for item XDHFKWK (N-terminal acetyl; Nle at 1 (X); D-Phe at 4; cyclo (lactam) between side chains of Asp 2 and Lys 7; C-terminal free acid (-OH), Synthetic cyclic heptapeptide; X = norleucine; also called Ac-Nle-cyclo( -Asp-His-D-Phe-Lys-Trp-Lsy)-OH) [Ac-Nle-cyclo(-Asp-His-D-Phe-Lys-Trp-Lys)-OH]
-- reply 4.97
